Entry source: patent US20240182536A1

Biological target: T1, IL-18 binding protein (IL-18BP) (UniProt O95998 31-194)
T1 sequence (looked up): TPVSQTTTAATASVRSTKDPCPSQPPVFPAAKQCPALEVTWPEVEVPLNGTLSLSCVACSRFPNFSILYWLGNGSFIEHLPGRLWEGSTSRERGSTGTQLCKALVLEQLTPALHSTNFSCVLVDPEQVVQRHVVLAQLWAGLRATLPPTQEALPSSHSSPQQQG
Assay: cell-based or functional assay
API: label(entry) gives class 1 if the entry's Activity, +100 nM BP, DF-1000002 is strictly smaller than 0.5; on equality or larger values it gives class 0.

Please check: Activity, +100 nM BP, DF-1000002 for IL-18 variant G3Q, E6H, K53T, D54S, S55Y, N91Y, R104K (ligand) YFQKLHSKLSVIRNLNDQVLFIDQGNRPLFEDMTDSDMRDNAPRTIFIISMYTSYQPRGMAVTISVKSEKISTLSSENKIISFKEMNPPDYIKDTKSDIIFFQKSVPGHDNKMQFESSSYEGYFLASEKERDLFKLILKKEDELGDRSIMFTVQNED , strictly under 0.5 or not? class 0

Okay, and IL-18 variant G3Y, E6S, K53S, D54W, S55L, T63S, N91I (ligand) YFYKLSSKLSVIRNLNDQVLFIDQGNRPLFEDMTDSDMRDNAPRTIFIISMYSWLQPRGMAVSISVKSEKISTLSSENKIISFKEMNPPDIIKDTKSDIIFFQRSVPGHDNKMQFESSSYEGYFLASEKERDLFKLILKKEDELGDRSIMFTVQNED ? class 0

Okay, and IL-18 variant G3Q, E6D, K53S, D54I, S55E, T63S, N91S, R104Q (ligand) YFQKLDSKLSVIRNLNDQVLFIDQGNRPLFEDMTDSDMRDNAPRTIFIISMYSIEQPRGMAVSISVKSEKISTLSSENKIISFKEMNPPDSIKDTKSDIIFFQQSVPGHDNKMQFESSSYEGYFLASEKERDLFKLILKKEDELGDRSIMFTVQNED ? class 1

Okay, and IL-18 variant G3S, E6Q, K53N, D54T, S55N, T63A, I80T, N91S (ligand) YFSKLQSKLSVIRNLNDQVLFIDQGNRPLFEDMTDSDMRDNAPRTIFIISMYNTNQPRGMAVAISVKSEKISTLSSENKTISFKEMNPPDSIKDTKSDIIFFQRSVPGHDNKMQFESSSYEGYFLASEKERDLFKLILKKEDELGDRSIMFTVQNED ? class 1

Okay, and IL-18 variant G3P, E6K, D54R, S55P, T63A, N91V (ligand) YFPKLKSKLSVIRNLNDQVLFIDQGNRPLFEDMTDSDMRDNAPRTIFIISMYKRPQPRGMAVAISVKSEKISTLSSENKIISFKEMNPPDVIKDTKSDIIFFQRSVPGHDNKMQFESSSYEGYFLASEKERDLFKLILKKEDELGDRSIMFTVQNED ? class 0

Okay, and IL-18 variant G3N, E6S, K53Q, D54W, S55R, N91T, R104T (ligand) YFNKLSSKLSVIRNLNDQVLFIDQGNRPLFEDMTDSDMRDNAPRTIFIISMYQWRQPRGMAVTISVKSEKISTLSSENKIISFKEMNPPDTIKDTKSDIIFFQTSVPGHDNKMQFESSSYEGYFLASEKERDLFKLILKKEDELGDRSIMFTVQNED ? class 1

Okay, and IL-18 variant G3Q, E6K, D54S, S55P, T63S, N91S, R104Q (ligand) YFQKLKSKLSVIRNLNDQVLFIDQGNRPLFEDMTDSDMRDNAPRTIFIISMYKSPQPRGMAVSISVKSEKISTLSSENKIISFKEMNPPDSIKDTKSDIIFFQQSVPGHDNKMQFESSSYEGYFLASEKERDLFKLILKKEDELGDRSIMFTVQNED ? class 0
